Origin of measurements: patent US20250313574A1

Assayed system: Recombinant Human Siglec-3/CD33 protein (His-CD33) (Homo sapiens (Human), UniProt P20138)
Sequence (P20138 18-259): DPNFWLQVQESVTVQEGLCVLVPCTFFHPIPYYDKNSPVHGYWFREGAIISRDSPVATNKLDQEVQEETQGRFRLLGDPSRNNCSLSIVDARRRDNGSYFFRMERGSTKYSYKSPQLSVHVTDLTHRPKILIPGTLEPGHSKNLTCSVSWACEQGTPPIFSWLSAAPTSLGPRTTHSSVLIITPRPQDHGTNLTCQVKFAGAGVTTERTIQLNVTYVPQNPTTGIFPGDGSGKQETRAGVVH
Experiment notes: Differential scanning fluorimetry (DSF) thermal shift assay
Format: binding
Settings: thermal melt shift of 0.5 μM CD33 protein with 50 μM compound
Below, each entry is listed with its recorded DSF (dTmD).
Test readout: DSF (dTmD)

{"Molecule": "CC(=O)N[C@H]1[C@H]([C@H](O)[C@H](O)CNC(=O)c2ccc3c(cnn3C)c2)O[C@@](CCN2CCOC[C@@]23CCN(C(=O)OC(C)(C)C)C3)(C(=O)O)C[C@@H]1O", "Measured": 13.4}
{"Molecule": "CC(=O)N[C@H]1[C@H]([C@H](O)[C@H](O)CNC(=O)c2cc(C)c(O)c(C)c2)O[C@@](CCN2CCOC[C@@]23CCN(C(=S)NC2CCCCC2)C3)(C(=O)O)C[C@@H]1O", "Measured": 9.9}
{"Molecule": "CC(=O)N[C@H]1[C@H]([C@H](O)[C@H](O)CNC(=O)c2c[nH]nc2C(F)(F)F)O[C@@](CCN2CCOC[C@@]23CCN(C(=O)OC(C)(C)C)C3)(C(=O)O)C[C@@H]1O", "Measured": 4.6}
{"Molecule": "CCC/C(C)=C/C(=O)NC[C@@H](O)[C@@H](O)[C@@H]1O[C@@](CCN2CCOC[C@@]23CCN(C(=O)OC(C)(C)C)C3)(C(=O)O)C[C@H](O)[C@H]1NC(C)=O", "Measured": 4.8}
{"Molecule": "CC(=O)N[C@H]1[C@H]([C@H](O)[C@H](O)CNC(=O)c2cc(C(F)(F)F)cc(C(F)(F)F)c2)O[C@@](CCN2CCOC[C@@]23CCN(C(=O)OC(C)(C)C)C3)(C(=O)O)C[C@@H]1O", "Measured": 8.3}
{"Molecule": "CC(=O)N[C@H]1[C@H]([C@H](O)[C@H](O)CNC(=O)c2cc(C)c(O)c(C)c2)O[C@@](CCN2CCOC[C@@]23CCN(C(=O)C2(C)CCC2)C3)(C(=O)O)C[C@@H]1O", "Measured": 6.6}
{"Molecule": "CC(=O)N[C@H]1[C@H]([C@H](O)[C@H](O)CNC(=O)c2ccc3occc3c2)O[C@@](CCN2CCOC[C@@]23CCN(C(=O)OC(C)(C)C)C3)(C(=O)O)C[C@@H]1O [A-121]", "Measured": 13.6}
{"Molecule": "CC(=O)N[C@H]1[C@H]([C@H](O)[C@H](O)CNC(=O)c2cn[nH]c2)O[C@@](CCN2CCOC[C@@]23CCN(C(=O)OC(C)(C)C)C3)(C(=O)O)C[C@@H]1O", "Measured": 5.9}
{"Molecule": "CC(=O)N[C@H]1[C@H]([C@H](O)[C@H](O)CNC(=O)c2cc(C)c(O)c(C)c2)O[C@@](C/C=C/C2(C)CCN(C(=O)OC(C)(C)C)C2)(C(=O)O)C[C@@H]1O (stereo partly shown)", "Measured": 10.8}
{"Molecule": "CC(=O)N[C@H]1[C@H]([C@H](O)[C@H](O)CNC(=O)c2ccc3[nH]cc(C)c3c2)O[C@@](CCN2CCOC[C@@]23CCN(C(=O)OC(C)(C)C)C3)(C(=O)O)C[C@@H]1O", "Measured": 12.5}
